For each of the compounds below, state its Ratio Test/con (GST).
# Tested on: Glutathione S-Transferase
# Assay info: Glutathione S-transferase (GST) activity in tissue cytosol of treated mice, CDNB substrate
# Assay type: in vivo, Female A/J mice
# Run conditions: small intestinal mucosa; dose 0.02 mmol/Kg body weight, gavage

Query: Short answer please: Ratio Test/con (GST), Glutathione S-Transferase, entry N#C[Se]Cc1ccc(C[Se]C#N)[se]1 [(4) SDMSC]
Response: 1.00

Query: What do you get for N#C[Se]Cc1ccc(C[Se]C#N)cc1 [p-XSC, 1,4-phenylenebis(methylene)selenocyanate, reference compound] ?
Response: 0.95

Query: What do you get for [Se]=C=NCc1ccc(CN=C=[Se])[se]1 [(7) SDMISC] ?
Response: 2.26

Query: What do you get for N#C[Se]Cc1ccc[se]1 [(3) SMSC, 2-selenophenyl methylene selenocynate] ?
Response: 0.86

Query: What do you get for [Se]=C=NCc1ccc(CN=C=[Se])s1 [(6) TDMISC] ?
Response: 2.45

Query: What do you get for N#C[Se]Cc1ccc(C[Se]C#N)s1 [(2) TDMSC, thienyl-2,5-di-methylene selenocyanate] ?
Response: 1.03

* * *

# Test system: Glutathione S-Transferase
# Assay info: Glutathione S-transferase (GST) activity in tissue cytosol of treated mice, CDNB substrate
# Type: in vivo, Female A/J mice
# Run conditions: lung; dose 0.04 mmol/Kg body weight, gavage
For each of the molecules below, state its Ratio Test/con (GST).
Reply: number alone, nothing else.

Query: Short answer please: Ratio Test/con (GST), Glutathione S-Transferase, entry [Se]=C=NCc1ccc(CN=C=[Se])s1
Response: 1.73

Query: What do you get for [Se]=C=NCc1ccc(CN=C=[Se])[se]1 ?
Response: 1.16

Query: What do you get for N#C[Se]Cc1ccc(C[Se]C#N)[se]1 ?
Response: 1.17

Query: What do you get for N#C[Se]Cc1ccc(C[Se]C#N)s1 [(2) TDMSC, thienyl-2,5-di-methylene selenocyanate] ?
Response: 1.15

Query: What do you get for N#C[Se]Cc1ccc[se]1 [(3) SMSC, 2-selenophenyl methylene selenocynate] ?
Response: 1.00

* * *

# System: Glutathione S-Transferase
# Assay info: Glutathione S-transferase (GST) activity in tissue cytosol of treated mice, CDNB substrate
# Assay type: in vivo, Female A/J mice
# Run conditions: small intestinal mucosa; dose 0.02 mmol/Kg body weight, gavage in corn oil
For each of the compounds below, state its GST act..
Dear colleague, please return just the value in μmol/min mg protein, with no unit written.

Query: Entry under review: N#C[Se]Cc1ccc(C[Se]C#N)[se]1 . Reported GST act.?
Response: 0.34

Query: What do you get for N#C[Se]Cc1ccc(C[Se]C#N)s1 [(2) TDMSC, thienyl-2,5-di-methylene selenocyanate] ?
Response: 0.35

Query: What do you get for N#C[Se]Cc1ccc[se]1 [(3) SMSC, 2-selenophenyl methylene selenocynate] ?
Response: 0.19

Query: What do you get for N#C[Se]Cc1ccc(C[Se]C#N)cc1 [p-XSC, 1,4-phenylenebis(methylene)selenocyanate, reference compound] ?
Response: 0.21

* * *

# System: Glutathione S-Transferase
# Assay info: Glutathione S-transferase (GST) activity in tissue cytosol of treated mice, CDNB substrate
# Format: in vivo, Female A/J mice
# Run conditions: forestomach; dose 0.02 mmol/Kg body weight, gavage in corn oil
Endpoint name: GST act. (μmol/min mg protein)
Dear colleague, please return just the value in μmol/min mg protein, with no unit written.

Query: Entry under review: N#C[Se]Cc1ccc(C[Se]C#N)s1 [(2) TDMSC, thienyl-2,5-di-methylene selenocyanate] . Reported GST act.?
Response: 0.90

Query: What do you get for N#C[Se]Cc1ccc[se]1 [(3) SMSC, 2-selenophenyl methylene selenocynate] ?
Response: 0.89

Query: What do you get for [Se]=C=NCc1ccc(CN=C=[Se])[se]1 ?
Response: 1.22

Query: What do you get for [Se]=C=NCc1ccc(CN=C=[Se])s1 ?
Response: 1.03

Query: What do you get for N#C[Se]Cc1ccc(C[Se]C#N)cc1 [p-XSC, 1,4-phenylenebis(methylene)selenocyanate, reference compound] ?
Response: 0.98

Query: What do you get for N#C[Se]Cc1ccc(C[Se]C#N)[se]1 ?
Response: 1.05
